// data source = PubChem BioAssay (NCI)

- Test system: SNB-75 CNS
- assay.comment: NCI tumour cell line growth inhibition, 48 h; in the data active = GI50 below about 0.43 µM; inactive = the rest
Outcomes: label 1 for active, label 0 for inactive

COc1c(C)cnc(Cn2cnc3c(Cl)nc(N)nc32)c1C | label 0
CCS(=O)(=O)Nc1ccc(Oc2ccc(F)cc2F)c(-c2cn(C)c(=O)c3[nH]ccc23)c1 | label 1
C[As](C)SCC(COC(=O)c1ccccc1)OC(=O)c1ccccc1 (stereo not given) | label 0
Oc1ccc(-c2nc(-c3ccc4oc5ccc(-c6[nH]c(-c7ccc(O)cc7)nc6-c6ccccc6)cc5c4c3)c(-c3ccccc3)[nH]2)cc1 | label 0
O=C1/C(=C/c2ccc([N+](=O)[O-])s2)Oc2ccc(Cl)cc21 | label 0
Cn1cnc2nc(Cl)nc(Cl)c21 | label 0
COc1ccc(/C=C2\CN(Cc3cn(CCCNc4ccnc5cc(Cl)ccc45)nn3)C/C(=C\c3ccc(OC)cc3)C2=O)cc1 | label 0
Nc1cc(N)c2nc(-c3ccccc3)c(Sc3ccc(F)cc3)nc2c1 | label 0
CCOC(=O)C(Cc1ccc(N(CCCl)CCCl)cc1)NC(=O)C(CC(C)C)NC(C)=O (stereo not given) | label 0
CCCCc1ccc(C(N)=O)nc1 | label 0
CCN(CC)CCC(CNc1c2ccc(Cl)cc2nc2ccc(OC)cc12)c1ccccc1 (stereo not given) | label 0
CN(C)c1ccc(/C=C/C(=O)c2ccc(Nc3nc(Nc4ccc(F)cc4)nc(Nc4ccc(Cl)cc4)n3)cc2)cc1 | label 0
CCOC(=O)c1ccccc1NC(c1ccccc1)c1ccc2cccnc2c1O (stereo not given) | label 0
COc1cc(C2C3=C(COC3=O)N(CCO)c3cc4c(cc32)CCC4)cc(OC)c1OC (stereo not given) | label 1
COc1ccc(N2CCN(CC(=O)N3CCN(c4nnc(-c5ccc(Cl)cc5)c(-c5ccc(Cl)cc5)n4)CC3)CC2)cc1 | label 0
